# System: Purified breast cancer cells from 67 patient (Pt) biopsies
# protocol: MiCK assay of drug-induced apoptosis, breast cancer specimens
# Type: cell-based, human
# assay-conditions: kinetic units of apoptosis, median over N patient samples
Quick list: KU Median per entry.
Don't forget the unit after the number, please.

Find the recorded KU Median belonging to CC(=O)O[C@H]1C(=O)[C@@]2(C)[C@H]([C@H](OC(=O)c3ccccc3)[C@]3(O)C[C@H](OC(=O)[C@H](O)[C@@H](NC(=O)c4ccccc4)c4ccccc4)C(C)=C1C3(C)C)[C@]1(OC(C)=O)CO[C@@H]1C[C@@H]2O and report it.
1.9 KU

Next compound up: CC[C@]1(O)C[C@H]2CN(CCc3c([nH]c4ccccc34)[C@@](C(=O)OC)(c3cc4c(cc3OC)N(C=O)[C@H]3[C@@](O)(C(=O)OC)[C@H](OC(C)=O)[C@]5(CC)C=CCN6CC[C@]43[C@@H]65)C2)C1
1.0 KU

====

Quick list: Max Resp. (KU) per entry.
# Test system: neoplastic cells collected from spleen and abdominal tumor biopsy specimens
# protocol: MiCK assay, patient specific cancer cell testing (Example 10)
# Assay type: cell-based, human
# assay-conditions: person, tumor of unknown primary; maximum apoptotic response over the concentrations tested
Report as a plain number; the unit KU is understood.

INSERT INTO measurements (molecule, assay_result) VALUES
  ('CC[C@]1(O)C[C@H]2CN(CCc3c([nH]c4ccccc34)[C@@](C(=O)OC)(c3cc4c(cc3OC)N(C=O)[C@H]3[C@@](O)(C(=O)OC)[C@H](OC(C)=O)[C@]5(CC)C=CCN6CC[C@]43[C@@H]65)C2)C1', 0.9),
  ('O=P1(N(CCCl)CCCl)NCCCO1 (centres unmarked) [Cytoxan, cyclophosphamide]', 8.4);

Value wanted: Max Resp. (KU) (neoplastic cells collected from spleen and abdominal tumor biopsy specimens) of entry O=NN(CCCl)C(=O)NC1CCCCC1
0.8

Next molecule up: COc1cccc2c1C(=O)c1c(O)c3c(c(O)c1C2=O)C[C@@](O)(C(=O)CO)C[C@@H]3O[C@H]1C[C@H](N)[C@H](O)[C@H](C)O1
3.5

Next molecule up: N[C@@H](Cc1ccc(N(CCCl)CCCl)cc1)C(=O)O
5.3

====

# System: Purified breast cancer cells from 67 patient (Pt) biopsies
# protocol: MiCK assay of drug-induced apoptosis, breast cancer specimens
# Assay type: cell-based, human
# assay-conditions: kinetic units of apoptosis, median over N patient samples
reported-property: KU Median

Observe how each entry below is paired with its result.
INSERT INTO results (compound, assay_result) VALUES
  ('Nc1ccn([C@@H]2O[C@H](CO)[C@@H](O)C2(F)F)c(=O)n1', '0.8 KU'),
  ('CCCCCOC(=O)Nc1nc(=O)n([C@@H]2O[C@H](C)[C@@H](O)[C@H]2O)cc1F', '0.7 KU');

// next item, KU Median requested
Find the recorded KU Median belonging to N.N.[Cl][Pt][Cl] [Cisplatin] and report it.
2.3 KU

====

# System: Purified breast cancer cells from 67 patient (Pt) biopsies
# protocol: MiCK assay of drug-induced apoptosis, breast cancer specimens
# Format: cell-based, human
# assay-conditions: kinetic units of apoptosis, median over N patient samples
Quick list: KU Median per entry.

INSERT INTO measurements (compound, assay_result) VALUES
  ('CCC1=C[C@@H]2CN(C1)Cc1c([nH]c3ccccc13)[C@@](C(=O)OC)(c1cc3c(cc1OC)N(C)[C@H]1[C@@](O)(C(=O)OC)[C@H](OC(C)=O)[C@]4(CC)C=CCN5CC[C@]31[C@@H]54)C2 [Vinor, vinorelbine]', '1.5 KU'),
  ('O=C1c2c(O)ccc(O)c2C(=O)c2c(NCCNCCO)ccc(NCCNCCO)c21 [Mitox, mitoxantrone]', '1.2 KU'),
  ('CC[C@]1(O)C[C@@H]2CN(CCc3c([nH]c4ccccc34)[C@@](C(=O)OC)(c3cc4c(cc3OC)N(C)[C@H]3[C@@](O)(C(=O)OC)[C@H](OC(C)=O)[C@]5(CC)C=CCN6CC[C@]43[C@@H]65)C2)C1 [Vnbl, Vinblastine]', '1.5 KU'),
  ('C=C1C[C@@H]2CC[C@@]34C[C@H]5O[C@H]6[C@@H](O3)[C@H]3O[C@H](CC[C@@H]3O[C@H]6[C@H]5O4)CC(=O)C[C@@H]3[C@@H](OC)[C@@H](C[C@H](O)CN)O[C@H]3C[C@H]3O[C@@H](CC[C@@H]1O2)C[C@@H](C)C3=C [Eribulin, eribulin]', '1.0 KU'),
  ('CC(=O)O[C@@]12CO[C@@H]1C[C@H](O)[C@@]1(C)C(=O)[C@H](O)C3=C(C)[C@@H](OC(=O)[C@H](O)[C@@H](NC(=O)OC(C)(C)C)c4ccccc4)C[C@@](O)([C@@H](OC(=O)c4ccccc4)[C@H]21)C3(C)C [Taxotere, docetaxel]', '1.9 KU');

Value wanted: KU Median (Purified breast cancer cells from 67 patient (Pt) biopsies) of entry COc1cccc2c1C(=O)c1c(O)c3c(c(O)c1C2=O)C[C@@](O)(C(=O)CO)C[C@@H]3O[C@H]1C[C@H](N)[C@H](O)[C@H](C)O1 [Doxo, doxorubicin]
1.6 KU

Next compound up: N.N.O=C([O-])C1(C(=O)[O-])CCC1.[Pt+2] [Carbo, Carboplatin]
1.6 KU

Next compound up: C/C(=C\c1csc(C)n1)[C@@H]1C[C@@H]2O[C@]2(C)CCC[C@H](C)[C@H](O)[C@@H](C)C(=O)C(C)(C)[C@@H](O)CC(=O)N1 [Ixabepilone, ixabepilone]
1.2 KU

Next compound up: COc1cccc2c1C(=O)c1c(O)c3c(c(O)c1C2=O)C[C@@](O)(C(=O)CO)C[C@@H]3O[C@H]1C[C@H](N)[C@@H](O)[C@H](C)O1 [Epi, Epirubicin]
2.1 KU

Next compound up: O=c1[nH]cc(F)c(=O)[nH]1 [5FU, 5-fluorouracil]
0.6 KU

Next compound up: O=C1[O][Pt]2([NH][C@@H]3CCCC[C@H]3[NH]2)[O]C1=O [Oxali, oxaliplatin]
1.8 KU
